# CONDITION_CONTEXT: 298.15 K; 101.33 kPa; Liquid; Pycnometric method
± gives the expanded uncertainty stated by the source.
QUANTITY_KIND: mass density
Write the numeric value and follow it with the unit.

**Q:** Would you kindly share the measured mass density for CCO ?
**A:** 785.29 ± 0.71 kg/m3

**Q:** Another: CCC(C)(C)OC
**A:** 765.68 ± 0.69 kg/m3

**Q:** Another: CO
**A:** 786.64 ± 0.71 kg/m3

**Q:** Another: CCC(C)O (stereo not drawn)
**A:** 802.73 ± 0.72 kg/m3

**Q:** Another: CCCCO
**A:** 805.87 ± 0.72 kg/m3

**Q:** Another: CCCO
**A:** 799.89 ± 0.72 kg/m3

**Q:** Another: O
**A:** 997.17 ± 0.9 kg/m3

**Q:** Another: CC(C)O
**A:** 781.34 ± 0.7 kg/m3
